# targetOrSystem: T1, human CTLA-4 (human, UniProt P16410 36-223)
# T1 construct: whole, on cells; CHO cells stably expressing huCTLA4; also called huCTLA4
# T1 sequence (P16410 36-223): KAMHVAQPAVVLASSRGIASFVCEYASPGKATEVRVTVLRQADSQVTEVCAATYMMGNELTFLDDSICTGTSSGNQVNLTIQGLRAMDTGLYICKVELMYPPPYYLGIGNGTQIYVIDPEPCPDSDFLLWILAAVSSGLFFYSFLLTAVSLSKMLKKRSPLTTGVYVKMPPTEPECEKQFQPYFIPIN
# assayProtocol: flow cytometry, CHO cells stably expressing huCTLA-4, 33.3 nM Fc fusion, PE anti-human Fc
valueKind: MFI at 33.3 nM (MFI)
Numbers only here, please. The scale is MFI.

As a guide, the following entries are already answered.
# binder, units, assayValue
records = [
    ("variant CD80 IgV-Fc (inert) A26P/E35D/M47I/V68M/A71G/D90G (Fc fusion, not shown: inert human IgG1 Fc) VIHVTKEVKEVATLSCGHNVSVEELPQTRIYWQKDKKMVLTMMSGDINIWPEYKNRTIFDITNNLSIMILGLRPSDEGTYECVVLKYEKGAFKREHLAEVTLSVKAD", "MFI", 19800),
    ("variant CD80 IgV-Fc (inert) H18V/A26P/E35D/M47V/V68L/A71G (Fc fusion, not shown: inert human IgG1 Fc) VIHVTKEVKEVATLSCGVNVSVEELPQTRIYWQKDKKMVLTMMSGDVNIWPEYKNRTIFDITNNLSILILGLRPSDEGTYECVVLKYEKDAFKREHLAEVTLSVKAD", "MFI", 13700),
    ("variant CD80 IgV-Fc (inert) H18F/A26N/E35D/M47V/V68M/A71G/D90K (Fc fusion, not shown: inert human IgG1 Fc) VIHVTKEVKEVATLSCGFNVSVEELNQTRIYWQKDKKMVLTMMSGDVNIWPEYKNRTIFDITNNLSIMILGLRPSDEGTYECVVLKYEKKAFKREHLAEVTLSVKAD", "MFI", 15200),
]

Look up and state reported MFI at 33.3 nM for variant CD80 IgV-Fc (inert) H18Y/A26P/E35D/M47Y/V68I/A71G/D90G (Fc fusion, not shown: inert human IgG1 Fc) VIHVTKEVKEVATLSCGYNVSVEELPQTRIYWQKDKKMVLTMMSGDYNIWPEYKNRTIFDITNNLSIIILGLRPSDEGTYECVVLKYEKGAFKREHLAEVTLSVKAD
8280

Report MFI at 33.3 nM for variant CD80 IgV-Fc (inert) H18V/E35D/M47V/V68M/A71G/D90G (Fc fusion, not shown: inert human IgG1 Fc) VIHVTKEVKEVATLSCGVNVSVEELAQTRIYWQKDKKMVLTMMSGDVNIWPEYKNRTIFDITNNLSIMILGLRPSDEGTYECVVLKYEKGAFKREHLAEVTLSVKAD
16800

Name the recorded MFI at 33.3 nM of the item variant CD80 IgV-Fc (inert) H18L/E35D/M47V/V68M/A71G/D90G (Fc fusion, not shown: inert human IgG1 Fc) VIHVTKEVKEVATLSCGLNVSVEELAQTRIYWQKDKKMVLTMMSGDVNIWPEYKNRTIFDITNNLSIMILGLRPSDEGTYECVVLKYEKGAFKREHLAEVTLSVKAD in your answer.
20300

Give the reported MFI at 33.3 nM for this binder. variant CD80 IgV-Fc (inert) H18Y/A26P/E35D/M47I/V68M/A71G (Fc fusion, not shown: inert human IgG1 Fc) VIHVTKEVKEVATLSCGYNVSVEELPQTRIYWQKDKKMVLTMMSGDINIWPEYKNRTIFDITNNLSIMILGLRPSDEGTYECVVLKYEKDAFKREHLAEVTLSVKAD
12200

Query MFI at 33.3 nM for variant CD80 IgV-Fc (inert) H18F/A26P/E35D/M47I/V68M/A71G/D90G (Fc fusion, not shown: inert human IgG1 Fc) VIHVTKEVKEVATLSCGFNVSVEELPQTRIYWQKDKKMVLTMMSGDINIWPEYKNRTIFDITNNLSIMILGLRPSDEGTYECVVLKYEKGAFKREHLAEVTLSVKAD
23900

Consider the binder variant CD80 IgV-Fc (inert) H18V/A26P/E35D/M47L/V68M/A71G (Fc fusion, not shown: inert human IgG1 Fc) VIHVTKEVKEVATLSCGVNVSVEELPQTRIYWQKDKKMVLTMMSGDLNIWPEYKNRTIFDITNNLSIMILGLRPSDEGTYECVVLKYEKDAFKREHLAEVTLSVKAD and give its recorded MFI at 33.3 nM.
16200

Report MFI at 33.3 nM for variant CD80 IgV-Fc (inert) H18V/A26Q/E35D/M47V/V68L/A71G/D90G (Fc fusion, not shown: inert human IgG1 Fc) VIHVTKEVKEVATLSCGVNVSVEELQQTRIYWQKDKKMVLTMMSGDVNIWPEYKNRTIFDITNNLSILILGLRPSDEGTYECVVLKYEKGAFKREHLAEVTLSVKAD
17700

State, in one line, measured MFI at 33.3 nM of variant CD80 IgV-Fc (inert) H18Y/E35D/M47V/V68L/A71G/D90G (Fc fusion, not shown: inert human IgG1 Fc) VIHVTKEVKEVATLSCGYNVSVEELAQTRIYWQKDKKMVLTMMSGDVNIWPEYKNRTIFDITNNLSILILGLRPSDEGTYECVVLKYEKGAFKREHLAEVTLSVKAD
16500

Please look at this binder and report its MFI at 33.3 nM: variant CD80 IgV-Fc (inert) H18V/A26D/E35D/M47V/V68M/A71G/D90G (Fc fusion, not shown: inert human IgG1 Fc) VIHVTKEVKEVATLSCGVNVSVEELDQTRIYWQKDKKMVLTMMSGDVNIWPEYKNRTIFDITNNLSIMILGLRPSDEGTYECVVLKYEKGAFKREHLAEVTLSVKAD
22100

Answer with the recorded MFI at 33.3 nM of variant CD80 IgV-Fc (inert) H18R/A26P/E35D/D46N/M47V/V68M/A71G/D90P (Fc fusion, not shown: inert human IgG1 Fc) VIHVTKEVKEVATLSCGRNVSVEELPQTRIYWQKDKKMVLTMMSGNVNIWPEYKNRTIFDITNNLSIMILGLRPSDEGTYECVVLKYEKPAFKREHLAEVTLSVKAD only.
17300
